- Tested on: K-562 leukemia
- measurement notes: NCI-60 one-dose screen, 48 h (100 = growth as untreated, 0 = no growth, -100 = all killed)
- measurement context: 10 µM unless noted
Compounds without any hit were thinned out: in the full panel of roughly 83,000, 20% have a hit.
# cutoff 80% applies to growth; >= gives criterion met, < gives criterion not met

CC(=O)Nc1ccc(CC#N)cc1Br : criterion met
COC(=O)c1ccc2[nH]c(O)c(C(=Nc3ccc(N(C)C(=O)CN4CCN(C)CC4)cc3)c3cccc(OC)c3)c2c1 : criterion not met
CCCOC(=O)c1c(C)n(C)c2scc[n+]12 : criterion not met
CCCCCCCCCCCCOC(=N)N(C)C : criterion met
CCCCCCNc1nc(N2CCOCC2)c2[nH]c(NCCCCCC)nc2n1 : criterion not met
COc1cc2ncnc(-n3ncc4cc(NC(=O)Nc5ccc(Cl)c(C)c5)ccc43)c2cc1OC : criterion met
COc1ccc(Cn2cc3c(c2-c2ccc(OC)cc2)CCc2cnoc2-3)cc1 : criterion not met
CCOc1ccccc1/C=N\N=C(N/N=C/c1ccccc1OCC)N/N=C/c1ccccc1OCC : criterion not met
O=C(N/N=C/c1coc2ccccc2c1=O)c1cc2oc(-c3ccccc3)cc2[nH]1 : criterion met

###

- System: TK-10 renal
- measurement notes: NCI-60 one-dose screen, 48 h
- measurement context: 10 µM unless noted
The panel holds about 83,000 compounds, 20% with a hit somewhere; the sample as a whole holds those more often. The source made the active and inactive calls. How the source made its calls: active means growth percent below 10; inactive means the rest.
Labels: active, inactive

C/C(=C\c1ccc2ccccc2c1)[N+](=O)[O-] : active
COc1ccc(-c2cn3ccnc3c(-c3ccc4ncn(C5CCCCC5)c4c3)n2)cc1 : inactive
CCCCCCCCC(=O)Nc1ccc(O)cc1 : inactive
COC(=O)c1ccc2[nH]c(O)c(C(=Nc3ccc(N(C)C(=O)CN4CCN(C)CC4)cc3)c3ccc(N)cc3)c2c1 : inactive
Cc1ccc(NC(=O)CCl)cc1Cl : inactive
CC1(C)NC(=S)NC1=O : inactive
O=C1Nc2c(c(=O)n(-c3ccccc3)c3ccccc23)C(c2ccc(Cl)cc2)N1 (stereo unspecified) : inactive
COc1cc2ncnc(-n3ncc4cc(NC(=O)Nc5ccccc5)ccc43)c2cc1OC : active
CCN(CC)c1ccc2nc3ccc(N=Nc4ccc(O)cc4)cc3[n+](-c3ccccc3)c2c1 : inactive
CC1=C[C@@H]2c3c(c(O)c(O)c4oc5cc(O)cc(O)c5c(=O)c34)[C@@H](c3cc(O)c(O)c4oc5cc(O)cc(O)c5c(=O)c34)[C@@H]2C(C)(C)C1 : inactive
O=C1CCNC1 : inactive
O=C1/C(=C/c2ccc(Cl)cc2)CCC/C1=C\c1ccc(Cl)cc1 : inactive
COc1cc(OC)c(NC(=O)n2ncc3cc(Nc4ncnc5ccccc45)ccc32)cc1Cl : inactive
COc1ccc(C(=O)CN2C(=O)NC(c3ccccc3)(c3ccccc3)C2=O)cc1 : inactive
O=C1/C(=N\c2cc(=O)[nH]n2S(=O)(=O)c2ccccc2)Nc2ccccc21 : inactive
COc1cc2ncnc(-n3ncc4cc(NC(=O)Nc5ccc(Cl)c(Cl)c5)ccc43)c2cc1OC : active
CC(C)(C)OC(=O)N1C/C(=C\c2ccccc2)C(=O)/C(=C/c2ccccc2)C1 : inactive
O=c1c(N=Nc2nccs2)c(-c2ccccc2)[nH]n1-c1nc(-c2ccccc2)cs1 : inactive
O=C(O)CC1Cc2ccccc2C1C(=O)O (stereo unspecified) : inactive
COc1ccc2c(c1)/C(=C1/S/C(=N/c3nnc(C)s3)NC1=O)C(=O)N2Cc1ccc(Br)cc1 : inactive
N/C(=N\O)c1ccncc1 : inactive
